- Tested on: NCI-H522
- assay_summary: NCI tumour cell line growth inhibition, 48 h
Activity calls are given as the source filed them. No stated cut-off is given here; in the data, active = GI50 up to about 1.1 µM and inactive = higher.
Write down the outcome that applies. Available outcomes: active, inactive

Called result for "Clc1ccc(OCc2nnc(CCCCCCCCc3nnc(COc4ccc(Cl)cc4Cl)n3Nc3ccccc3)n2Nc2ccccc2)c(Cl)c1" inactive

Give the logged outcome of this assay for the following molecule: "Cc1c(C)c(S(=O)(=O)N(CCCCCCN)OCCCN)c(C)c2c1OC(C)(C)CC2" inactive

Query: recorded result category for "Cc1cc2c(=O)cc(-c3cccs3)oc2c(C(=O)O)c1C" in this test inactive

Hey, what did the test say about O=c1cnn(C2OC(CO)C(O)C2O)c(=S)[nH]1 (centres undefined) ? inactive

For "COc1ccc2c(c1)[n+]([O-])c(/C(C)=N/NC(=O)c1ccccc1O)c(C)[n+]2[O-]" , which call appears in the assay record? inactive

What call does the record list for "Cc1nc2ccc(Br)cc2c(=O)n1-c1nnc(C(C)(C)C)s1" ? inactive

What classification did "C[C@H](N)C(=O)Nc1ccc(-c2nc3ccccc3s2)cc1" end up with in this test? inactive

What did this assay record as the result for "COc1ccc(/C=C2\N=C3Sc4c([nH]cnc4=O)N3C2=O)cc1" ? inactive

// return assay outcome for "CC(C)COP(=O)(OCC(C)C)C(NS(=O)(=O)c1ccccc1)(C(F)(F)F)C(F)(F)F" inactive

// return assay outcome for "O=P1(N2CCOCC2)OCCO1" inactive

Record lookup: outcome of this test for "Cc1ccc(S(=O)(=O)N/N=C(/CC(=O)c2c(C)[n+]([O-])c3ccccc3[n+]2[O-])C(=O)Nc2ccccc2C)cc1" ? inactive

# outcome recorded in this test, key = "O=c1[nH]c(-c2ccc(-c3nc4cc([N+](=O)[O-])ccc4c(=O)[nH]3)cc2)nc2cc([N+](=O)[O-])ccc12" inactive

Call for entry COc1ccc([C@@]23Oc4cc(OC)cc(OC)c4[C@]2(O)[C@H](O)[C@H](C(=O)N(C)C)[C@H]3c2ccccc2)cc1 [ROCAGLAMIDE] : active

Answer briefly: the call reported for CC(C)c1ccc(C2C3=C(N=C4SCC(=O)N42)C(=O)c2ccccc23)cc1 (centres undefined) in this assay. inactive

// param item: CC1CCC(O)C(C(O)CC2CC(=O)N(C)C(=O)C2)C1 (centres undefined) ; yields the recorded call inactive

I'd appreciate the recorded outcome for COC1(C2c3ccccc3CCN2C(=O)OC(C)(C)C)C(=O)C(c2ccccc2)=C1N(C)C (centres undefined) from this test. inactive

Can you look up the reported call for CCOC(=O)C1C(c2ccc(Cl)cc2Cl)NC(c2ccc(C)cc2)C(C(=O)OC)S1(=O)=O (centres undefined) for me? inactive

Returns: the outcome recorded for "C=C1c2[nH]c3c([N+](=O)[O-])c(OC)ccc3c2CCN1C(C)=O" in this assay. inactive

Field: outcome | Entry: COC1/C=C\C=C(/C)C(=O)NC2=CC(=O)C(O)=C(CC(C)CC(OC)C(O)C(C)/C=C(\C)C1OC(N)=O)C2=O (centres undefined) active

###

- Test system: Malme-3M
- assay_summary: NCI tumour cell line growth inhibition, 48 h
Activity calls are given as the source filed them. Rule as the data show it: active = GI50 up to about 1.1 µM and inactive = higher.
Please reply with one of these outcomes: yes for active, no for inactive

Hi, sorry to bother you, what did the test record for "O=C1/C(=C\c2ccc([N+](=O)[O-])cc2)CS(=O)(=O)C/C1=C/c1ccc([N+](=O)[O-])cc1" ? yes

Recorded test outcome, item CC1C[C@]2(C[C@@H](C)C(=O)O2)OC2CC3(C)C4CCC5C(C)(C)OC(=O)CC[C@@]56C[C@@]46CC[C@]3(C)C12 (stereo not given in full) no

Entry "CN(C)CCCSc1nc2ccccc2[nH]1" : call = ? no

What call does the record list for CC1=CCCC(C)(O)C2CC(CCC3(C)OC3CC1)C(C)C(=O)O2 (stereo not given) ? no

Could you kindly confirm the outcome this assay logged for "Cc1[nH]c2ccccc2c1/C=N/c1ccc(Oc2ccccc2)cc1" ? no

Query: recorded result category for CNC(=O)OCC1=C(COC(=O)NC)C(C)N(c2ccccc2)C1 (stereo not given) in this test no

Would you mind telling me which call this test gave "Nc1nc(NCC2(CO)CC2)cc(=O)[nH]1" ? no

Per the assay record, what outcome was assigned to O=C1c2c(Br)sc(Br)c2[C@@H](NC(=O)C(F)(F)F)C1Br (stereo not given in full) ? no

Record request — test call for "O=C(CSc1ncccn1)N/N=C/c1ccccc1OCc1ccccc1" no

So what was the verdict on NC[C@H]1Nc2ccccc2[C@@H](O)C1O (stereo not given in full) in this test? no
